From: PubChem BioAssay (NCI)

tested on: OVCAR-8 ovarian; test: NCI tumour cell line growth inhibition, 48 h
Recorded TGI values for a group of molecules are listed next.

>>> print(df.to_string())
                            compound_string  reported_measurement
0  COc1ccc2c3c(c4ccccc4cc13)C(=O)N(CCN(C)CCN)C2=O               1.61 µM
1     NC(=O)C(=Cc1ccc(CP(=O)(O)O)cc1)C(N)=O              > 100 µM
2  COc1ccc(-c2cn(-c3cccc(C(=O)/C=C/c4ccc(O)c(OC)c4)c3)c(=O)[nH]2)cc1             > 49.6 µM
3  CO[C@H]1C[C@H](n2cc(C)c(=O)[nH]c2=O)O[C@@H]1CO              > 100 µM

The record that follows has no TGI shown yet.
Q: Looking for the measured TGI of `C[C@]1(C(=O)O)N[C@H](C(=O)O)CS1` , can you help?
Result: > 1000 µM

* * *

system: UACC-257 melanoma; assay: NCI tumour cell line growth inhibition, 48 h
TGI of 8 µM or higher: Condition met. Under 8 µM: Condition not met.

>>> df
                                   compound    label_class
0  CC(=O)Nc1ccc(-c2nnc(SCC(=O)Nc3cccc([N+](=O)[O-])c3)o2)cc1  Condition met
1  O=c1nc(NC(c2ccccc2)(c2ccccc2)c2ccccc2)ccn1CCO  Condition met

Q: Decide: is the reported value of TGI for `COc1ccc2nc3cc([N+](=O)[O-])ccc3c(NCCCN(CCO)CCO)c2c1` equal to or greater than 8 µM?
Result: Condition not met

Q: Decide: is the reported value of TGI for Nc1nc(NC2C=C(CO)C(O)C2O)c([N+](=O)[O-])c(=O)[nH]1 (stereo not given) equal to or greater than 8 µM?
Result: Condition met

Q: Decide: is the reported value of TGI for `Cn1c(/C=C(\C#N)c2cccc(C(F)(F)F)c2)nc2c(N3CCOCC3)nc(Cl)nc21` equal to or greater than 8 µM?
Result: Condition not met

Q: Decide: is the reported value of TGI for `COc1cc(/C=C2\N=C(C)N(n3c(-c4ccccc4)nc4ccccc4c3=O)C2=O)cc(OC)c1OC` equal to or greater than 8 µM?
Result: Condition met

Q: Decide: is the reported value of TGI for `CNc1ncnc2c1nnn2C` equal to or greater than 8 µM?
Result: Condition met

Q: Decide: is the reported value of TGI for CC1CC(=O)Nc2ccc(N=NN(C)C)cc2N1C=O (stereo not given) equal to or greater than 8 µM?
Result: Condition met

Q: Decide: is the reported value of TGI for `CCC/C(Cl)=N\OC(=O)Nc1ccc(F)c([N+](=O)[O-])c1` equal to or greater than 8 µM?
Result: Condition met

Q: Decide: is the reported value of TGI for COc1ccc(N2C(N)=C(C#N)C(C#N)(C#N)C2c2cccc([N+](=O)[O-])c2)cc1 (stereo not given) equal to or greater than 8 µM?
Result: Condition met

* * *

test system: OVCAR-4 ovarian; experiment: NCI tumour cell line growth inhibition, 48 h
Recorded TGI values for a group of compounds are listed next.

Illustrative cases are given below, each with its answer.
compound	assayed-system	TGI
O=c1cc(-c2ccccc2)nc(/C=C(\O)c2ccncc2)n1-c1ccccc1	OVCAR-4 ovarian	> 100 µM
Cc1cccc(Cl)c1NC(=O)c1cnc(Nc2cc(N3CCOCC3)cc(N3CCOCC3)c2)s1	OVCAR-4 ovarian	> 10 µM
COc1ccc(N2C(N)=C(C#N)C(C#N)(C#N)C2c2cccc([N+](=O)[O-])c2)cc1 (centres undefined)	OVCAR-4 ovarian	32 µM
NC(=O)c1ncn2c(=O)n(CCl)nnc12	OVCAR-4 ovarian	> 100 µM

Q: Looking for the measured TGI of CCOc1ccccc1N1C(=O)C(=O)C(c2nc3ccccc3o2)/C(=N\N)C1=O (centres undefined) , can you help?
Result: > 100 µM

Q: Looking for the measured TGI of `CSc1n(Cc2ccc3ccccc3c2)c(C)c[n+]1Cc1ccc2ccccc2c1` , can you help?
Result: 1.04 µM

Q: Looking for the measured TGI of `O=C(Cc1ccccc1)N=Nc1c(O)[nH]c2ccccc12` , can you help?
Result: > 100 µM

Q: Looking for the measured TGI of `COc1ccc2nc(NCN3C(=O)c4ccccc4C3=O)sc2c1` , can you help?
Result: > 100 µM

Q: Looking for the measured TGI of O=C1[C@H]2ON(c3ccccc3)C(c3ccccc3F)[C@H]2C(=O)N1c1ccc(Cc2ccc(N3C(=O)[C@@H]4ON(c5ccccc5)C(c5ccccc5F)[C@@H]4C3=O)cc2)cc1 (some centres undefined) , can you help?
Result: > 100 µM
